The measured values listed here are drawn from patent US8598184B2.

Experiment: In vivo pharmacokinetics study in rats, intravenous and oral administration
Design: species or system male Sprague Dawley rats
Details: male, Sprague Dawley, rat, plasma, iv, 2.5 mg/kg, IV 2.5 mg/kg, mean (n=3)
Recorded Metric: AUC(0-inf) (ng·h/mL)
Entry rule: numbers only, all in ng·h/mL.

Problem: Endpoint output: AUC(0-inf) of `OCCn1cc(-c2ncc3nnn(Cc4ccc5ncccc5c4)c3n2)cn1` . Value?
Solution: 5510

* * *

Experiment: In vivo pharmacokinetics study in rats, intravenous and oral administration
Set-up: species or system male Sprague Dawley rats
Conditions: male, Sprague Dawley, rat, plasma, iv, 2.5 mg/kg, IV 2.5 mg/kg, mean (n=3), read-out: Cmax
Recorded Metric: Cmax

Problem: Endpoint output: Cmax of `OCCn1cc(-c2ncc3nnn(Cc4ccc5ncccc5c4)c3n2)cn1` . Value?
Solution: 2710 ng/mL

* * *

Assay: In vivo pharmacokinetics study in rats, intravenous and oral administration
Set-up: species or system male Sprague Dawley rats
Conditions: male, Sprague Dawley, rat, plasma, iv, 2.5 mg/kg, IV 2.5 mg/kg, individual animals R 1-R 3
Recorded Metric: AUC(0-inf) (ng·h/mL)
Entry rule: numbers only, all in ng·h/mL.

Problem: Endpoint output: AUC(0-inf) of OCCn1cc(-c2ncc3nnn(Cc4ccc5ncccc5c4)c3n2)cn1 [Example 5] . Value?
Solution: 5480

* * *

Test: In vivo pharmacokinetics study in rats, intravenous and oral administration
Set-up: species or system male Sprague Dawley rats
Settings: male, Sprague Dawley, rat, plasma, po, 10 mg/kg, PO 10 mg/kg, fasted, individual animals R 4-R 6, read-out: Cmax
Description: The compounds of the present invention were formulated as a solution in a 30:70 (PEG 400:acidified H2O) vehicle. […] Standard set of pharmacokinetic parameters including Area Under the Curves (AUC's), elimination half-lives and bioavailabilities etc. were calculated using FDA certified pharmacokinetic program WinNonlin Professional v5.2 (Pharsight, USA). […]
Recorded Metric: Cmax (µg/mL)
Entry rule: numbers only, all in µg/mL.

Problem: Endpoint output: Cmax of `OCCn1cc(-c2ncc3nnn(Cc4ccc5ncccc5c4)c3n2)cn1` . Value?
Solution: 2.54
